- experimental-system: human capsaicin receptor (Homo sapiens)
- Construct: pBK-CMV expression construct encoding the full length human capsaicin receptor; expressed in transfected cells
- Sequence (Q8NER1 whole entry): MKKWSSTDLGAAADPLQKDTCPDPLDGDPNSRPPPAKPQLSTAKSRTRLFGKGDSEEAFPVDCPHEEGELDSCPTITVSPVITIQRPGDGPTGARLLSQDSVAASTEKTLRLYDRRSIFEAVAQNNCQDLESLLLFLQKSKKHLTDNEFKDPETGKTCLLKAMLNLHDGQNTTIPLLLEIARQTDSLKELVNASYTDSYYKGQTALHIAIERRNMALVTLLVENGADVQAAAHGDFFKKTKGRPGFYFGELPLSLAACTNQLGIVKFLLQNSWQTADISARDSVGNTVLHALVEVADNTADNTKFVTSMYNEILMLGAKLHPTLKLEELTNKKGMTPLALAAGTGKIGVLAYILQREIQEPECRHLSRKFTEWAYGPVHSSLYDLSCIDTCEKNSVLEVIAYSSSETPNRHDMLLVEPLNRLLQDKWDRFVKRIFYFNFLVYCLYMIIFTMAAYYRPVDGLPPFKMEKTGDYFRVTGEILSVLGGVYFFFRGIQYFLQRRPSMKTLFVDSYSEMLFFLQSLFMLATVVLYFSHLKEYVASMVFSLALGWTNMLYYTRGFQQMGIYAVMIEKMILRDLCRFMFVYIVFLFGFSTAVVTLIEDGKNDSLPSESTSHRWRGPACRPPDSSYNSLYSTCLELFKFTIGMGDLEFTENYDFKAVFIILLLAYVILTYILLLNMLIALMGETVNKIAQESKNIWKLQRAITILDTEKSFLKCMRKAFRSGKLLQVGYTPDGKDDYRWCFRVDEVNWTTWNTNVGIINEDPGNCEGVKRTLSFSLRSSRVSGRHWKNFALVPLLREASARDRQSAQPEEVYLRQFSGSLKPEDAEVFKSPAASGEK
- assay-info: Calcium mobilization assay, determination of antagonist activity (Example 6)
- Type: cell-based
- reported-conditions: determined as described in Example 6 (calcium mobilization, antagonist activity); Table II
pIC50: −log10 of the molar value.
metric: pIC50

[[record]]
compound = "CC1CCCN1c1nc(-c2ccc(F)c(Cl)c2)cc(N2CCN(c3ncccc3Cl)CC2)n1 (centres unmarked)"
metric = "pIC50"
result = "≥ 6.00"

[[record]]
compound = "CCc1nc(C)cn1-c1nc(-c2cccc(Cl)c2)cc(N2CCN(c3ncccc3C(F)(F)F)CC2)n1"
metric = "pIC50"
result = "≥ 6.00"

[[record]]
compound = "FC(F)(F)c1cccnc1N1CCN(c2cc(-c3ccc(N4CCCC4)c(Cl)c3)nc(N3CCCC3)n2)CC1"
metric = "pIC50"
result = "≥ 6.00"

[[record]]
compound = "Cc1cc(-c2cc(N3CCN(c4ncccc4C(F)(F)F)CC3)nc(C(C)N(C)C)n2)ccc1F (centres unmarked)"
metric = "pIC50"
result = "≥ 6.00"

[[record]]
compound = "OCCN1CCN(c2nc(-c3ccc(F)c(Cl)c3)cc(N3CCN(c4ncccc4C(F)(F)F)CC3)n2)CC1"
metric = "pIC50"
result = "≥ 6.00"

[[record]]
compound = "Cc1cccnc1N1CCN(c2cc(-c3ccc(F)c(Cl)c3)nc(N3CCOCC3)n2)CC1C (centres unmarked)"
metric = "pIC50"
result = "≥ 6.00"

[[record]]
compound = "CC1CCCN1c1nc(-c2ccc(F)c(Cl)c2)cc(N2CCN(c3ncccc3C(F)(F)F)CC2)n1 (centres unmarked)"
metric = "pIC50"
result = "≥ 6.00"

[[record]]
compound = "Cc1cc(-c2cc(N3CCN(c4ncccc4C(F)(F)F)CC3)nc(C(C)O)n2)ccc1F (centres unmarked)"
metric = "pIC50"
result = "≥ 6.00"


---

Reported pIC50 by item:
- experimental-system: human capsaicin receptor (Homo sapiens)
- Construct: pBK-CMV expression construct encoding the full length human capsaicin receptor; expressed in transfected cells
- assay-info: Calcium mobilization assay, determination of antagonist activity (Example 6)
- Format: cell-based
- reported-conditions: determined as described in Example 6 (calcium mobilization, antagonist activity); Table II
pIC50: −log10 of the molar value.
metric: pIC50

[[record]]
compound = "Cc1cc(-c2cc(N3CCN(c4ncccc4C(F)(F)F)CC3)nc(N3C(C)C=CC3C)n2)ccc1F (stereo not drawn)"
metric = "pIC50"
result = "≥ 6.00"

[[record]]
compound = "CC1CCCN1c1nc(-c2ccc(F)c(F)c2)cc(N2CCN(c3ncccc3Cl)C[C@H]2C)n1 (stereo partly drawn)"
metric = "pIC50"
result = "≥ 6.00"

[[record]]
compound = "CC1(C)CCCN1c1nc(-c2ccc(F)c(Cl)c2)cc(N2CCN(c3ncccc3C(F)(F)F)CC2)n1"
metric = "pIC50"
result = "≥ 6.00"

[[record]]
compound = "CC(CO)N(C)c1nc(-c2ccc(F)c(Cl)c2)cc(N2CCN(c3ncccc3C(F)(F)F)CC2)n1 (stereo not drawn)"
metric = "pIC50"
result = "≥ 6.00"

[[record]]
compound = "Cc1cc(-c2cc(N3CCN(c4ncccc4Cl)C[C@H]3C)nc(N3CCCC3C)n2)ccc1F (stereo partly drawn)"
metric = "pIC50"
result = "≥ 6.00"

[[record]]
compound = "CCN(CC)c1nc(-c2ccc(F)c(C)c2)cc(N2CCN(c3ncccc3Cl)CC2)n1"
metric = "pIC50"
result = "≥ 6.00"

[[record]]
compound = "C[C@@H]1CN(c2ncccc2Cl)CCN1c1cc(-c2ccc(F)c(F)c2)nc(N2CCCCC2)n1"
metric = "pIC50"
result = "≥ 6.00"

[[record]]
compound = "Fc1ccc(-c2cc(N3CCN(c4ncccc4C(F)(F)F)CC3)nc(-c3ccncc3)n2)cc1Cl"
metric = "pIC50"
result = "≥ 6.00"

[[record]]
compound = "Cc1cc(-c2cc(N3CCN(c4ncccc4C(F)(F)F)C[C@H]3C)nc(N3CCCCC3C)n2)ccc1F (stereo partly drawn)"
metric = "pIC50"
result = "≥ 6.00"

[[record]]
compound = "CC(C)c1nccn1-c1nc(-c2ccc(F)c(Cl)c2)cc(N2CCN(c3ncccc3C(F)(F)F)CC2)n1"
metric = "pIC50"
result = "≥ 6.00"

[[record]]
compound = "CCC(=O)N1CCN(c2nc(-c3ccc(F)c(Cl)c3)cc(N3CCN(c4ncccc4C(F)(F)F)CC3)n2)CC1"
metric = "pIC50"
result = "≥ 6.00"

[[record]]
compound = "Nc1nc(-c2ccc(F)c(Cl)c2)cc(N2CCN(c3ncccc3C(F)(F)F)CC2)n1"
metric = "pIC50"
result = "≥ 6.00"

[[record]]
compound = "CC(=O)c1nc(-c2ccc(F)c(Cl)c2)cc(N2CCN(c3ncccc3C(F)(F)F)CC2)n1"
metric = "pIC50"
result = "≥ 6.00"

[[record]]
compound = "O=C1NCC2(CCN(c3nc(-c4ccc(F)c(Cl)c4)cc(N4CCN(c5ncccc5C(F)(F)F)CC4)n3)CC2)O1"
metric = "pIC50"
result = "≥ 6.00"

[[record]]
compound = "CC(C)c1nccn1-c1nc(-c2cccc(Cl)c2)cc(N2CCN(c3ncccc3C(F)(F)F)CC2)n1"
metric = "pIC50"
result = "≥ 6.00"

